Molecular target: T1, mouse GPRC5D (mouse, UniProt Q9JIL6 1-344)
T1 construct: whole, on cells; HEK293T-mGPRC5D cells; also called mGPRC5D; murine GPRC5D
T1 sequence (looked up): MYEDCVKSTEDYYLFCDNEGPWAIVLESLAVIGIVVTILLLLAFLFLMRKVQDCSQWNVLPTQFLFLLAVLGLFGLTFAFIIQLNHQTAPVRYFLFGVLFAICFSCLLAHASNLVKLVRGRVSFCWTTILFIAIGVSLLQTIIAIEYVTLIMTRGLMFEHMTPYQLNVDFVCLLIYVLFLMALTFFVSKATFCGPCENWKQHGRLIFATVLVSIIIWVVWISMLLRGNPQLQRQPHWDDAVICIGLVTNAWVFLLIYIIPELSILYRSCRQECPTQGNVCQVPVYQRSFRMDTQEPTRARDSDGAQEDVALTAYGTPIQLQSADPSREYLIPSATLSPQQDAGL
Test: FACS, HEK293T-mGPRC5D cells
observable: Top
// print number alone

Example results:
{"columns": ["binder", "Top"],
 "data": [
  ["ch28H9C12 (antibody, V domains shown) VH: EVQLVESGGGLVKPGGSLKLSCAASGFTFSDYGMHWVRQAPEKGLEWVAYISSGSSTIYYADTVKGRFTISRDNAKNTLFLQMTSLRSEDTAIYYCVRRPWYFDVWGTGTTVTVSS VL: DVLMTQTPLSLPVSLGDQASISCRSSQSIVHSNGNTYLQWYLQKPGQSPKLLIYKVSNRFSGVPDRFSGSGSGTDFTLKISRLEAEDLGVYYCFQGSHVPFTFGSGTKLEIK", 26500],
  ["ch96C9E7 (antibody, V domains shown) VH: EVQLQQSGPELVKPGASVKMSCKASGYTFTYYILHWVKQKPGQGLEWIGYFNPYNDGNKFNERFRGKATLTSDKSSSTAYMELNSLTSEDSAVYFCARGGVRRYFDVWGAGTTVTVSS VL: DIQMTQSPSSLSASLGERVSLTCRASQDIGSNLNWLQQEPDGTIKRLISATFSLDSGVPKRFSGSRSGSDYSLTISSLESEDFVNYYCLQYASFPYTFGGGTKLEIK", 19200]
]}

Q) Using the record for ATG596 (antibody, V domains shown, Human IgG1; also called benchmark antibody ATG596; positive human IgG1 control antibody) VH: QVQLVQSGAEVKKPGASVKVSCKASGYSFTGYTMNWVRQAPGQGLEWMGLINPYNSDTNYAQKLQGRVTMTTDTSTSTAYMELRSLRSDDTAVYYCARVALRVALDYWGQGTLVTVSS VL: DIQMTQSPSSLSASVGDRVTITCKASQNVATHVGWYQQKPGKAPKRLIYSASYRYSGVPSRFSGSGSGTEFTLTISNLQPEDFATYYCQQYNRYPYTFGQGTKLEIK , report its Top.
A) 45600

Q) Can you look up the measured Top of ch101B3G3 (antibody, V domains shown) VH: EVQLQQSGPELVKPGASMKISCKASGYSFTGYTMNWVKQSHGKNLEWIGLINPYNGGTRYNQKFKDKATLTVDKSSSTAYMELLSLTSEDSAVYYCARWLLRYAMDYWGQGTSVTVSS VL: DIVMTQSQKFMSTSVGDRVSITCKASQNVGNAVAWYQQKPGHSPKLLISSASNRKNGVPDRFTGSGSGTDFTLTVSNMQSEDLADYFCQQYSDSSWTFGGGTKLEIK for me?
A) 57600

Q) GET /values?readout=Top&item= ch12G12C2 (antibody, V domains shown) VH: QIQLVQSGPELKMPGETVKISCKASGYTFTTYGLSWVKQAPGKGLKWMGWINTFSGVPIYADDFKGRFAFSLETSASTAYLQINNLKNEDTATYFCARWGIRQRGDYWGQGATLTVSS VL: QIVLTQSPAIMSASPGEKVTMTCSASSSVSYLHWYQQKSGTSPKRWIYDTSKLASGVPVRFSGSGSETSYSLTISSMEAEDAATYYCQQWTSNPPTFGGGTKLEIK
A) 1.48e+06

Q) Query (binder): ch15D6G2 (antibody, V domains shown) VH: EVQLVESGGDLVKPGGYLRLSCAASGFTFSSHGMSWVRQTPDKRLEWVATISSGGRNTYYPDSVKGRFTISRDNAKNILYLQMSSLKSEDTAMFYCTRHSGDAMDYWGQGTSVTVSS VL: DILLTQSPAILSVSPGERVSFSCRASQSIGTNIHWYQQRTNGSPRLLIKYASESISGIPSRFSGSGSGTDFTLSINSVESEDIADYYCQQSKSWPTFGGGTKLEIK ; field requested: Top
A) 648000

Q) What Top value was documented for this binder, ch26E2H6 (antibody, V domains shown) VH: EVQLVESGGDLVKPGGSLKLSCAASGFTFSSYGMSWVRQTPDKRLEWVATISSGGSYTYYPDSVKGRFTISRDNAKNTLYLQMSSLKSEDTAMYYCARHATDYWGQGTTLTVSS VL: QIVLTQSPAIMSASPGEKVTMTCSASSSVSYMHWYQQKSGTSPKRWIYDTSKLASGVPARFSGSGSGTSYSLTISSMEAEDAATYYCQQWSSNPLTFGAGTKLELK ?
A) 45700

Q) Field request: Top | item: ch108C4C12 (antibody, V domains shown) VH: EVQLQQSGPELVKPGASVKMSCKASGYTFTSYVIHWVKQKTGQGLEWIGYFNPYNDGTKYNEEFKGKATLTSDKSSNTAYMELNSLTSDDSAVYFCARGGVRRYFDVWGAGTTVTVSS VL: DIQMTQSPSSLSASLGERVSLTCRASQDIGSNLNWLQQEPDGTIKRLIYATFGLDSGVPKRFSGSRSGSDYSLTISSLESEDFVDYYCQQYASFPYTFGGGTKLEIK
A) 25500

Q) // query Top value for entry ch89F11E3 (antibody, V domains shown) VH: QVQLQQSGAELARPGASVKMSCKASGYTFTSSTIHWVKQRPGQGLAWIGYIVPSTGYTNYNQKFKDKATLTADKSSSTAYMQLTSLTSEDSAVYYCARSDGYPFGYSMAYWGQGTSVTVSS VL: DIQMNQSPSSLSASLGDTITITCHASQNINVWLSWYHQKPGNIPKLLIYKASNLHTGVPSRFSGSGSGTGFTLTISRLQPEDIATYYCQQGQSYPFTFGSGTKLEIK
A) 77300

The origin of these recorded values is patent US20250368734A1.
